Quick reference: GI50 of the listed items.
tested on: ACHN; assay: NCI tumour cell line growth inhibition, 48 h
Calls of active or inactive are those of the source. No stated cut-off is given here; in the data, active = GI50 up to about 1.1 µM and inactive = higher.

compound: O=C(NCc1ccccc1)c1cc2ccccc2o/c1=N\c1cccc(C(F)(F)F)c1
GI50: 46.3 µM (inactive)
//
compound: COc1ccc(Cc2c(N)[nH]c(=O)n(C)c2=O)cc1
GI50: > 100 µM (inactive)
//
compound: NC(=S)Nc1ccc2c(c1)oc1ccccc12
GI50: > 100 µM (inactive)

Notebook entry, ACHN assay: GI50 of Nc1ccn(CCCC(c2ccccc2)P(=O)(O)O)c(=O)n1 (stereo unspecified) = ? > 100 µM (inactive)

Then what about the compound COc1ccc2oc(=N)c(C(N)=O)cc2c1 ? 30.3 µM (inactive)

Then what about the compound NCCCCNCCCNC(=O)c1csc(-c2nc(CCN)sc2Cl)n1 ? > 100 µM (inactive)
